# targetOfAssay: human GLP-1 receptor (human, UniProt P43220 24-463)
# assayProcedure: cell-based or functional assay
Quick reference: hGLPIR cAMP EC50 ratio of the listed items.
Would you mind answering with just the numeric figure?

Form field hGLPIR cAMP EC50 ratio, entry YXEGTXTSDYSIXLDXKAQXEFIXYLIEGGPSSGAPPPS (Aib2; αMeF(2F)6; αMeL13; Orn16; K17((2-[2-(2-Amino-ethoxy)-ethoxy]-acetyl)2-(γGlu)-CO-(CH2)18-CO2H); Aib20; D-Glu24; C-terminal NH2) [Peptide 3] : 1.25

Form field hGLPIR cAMP EC50 ratio, entry YXEGTXTSDYSIXLDEKAQXEFIAYLIEGGPSSGAPPPS (Aib2; αMeF(2F)6; αMeL13; K17((2-[2-(2-Amino-ethoxy)-ethoxy]-acetyl)2-(γGlu)-CO-(CH2)18-CO2H); Aib20; C-terminal NH2) [Peptide 148] : 0.859

Form field hGLPIR cAMP EC50 ratio, entry YXEGTXTSDYSIXLDEKAQXEFIHYLIEGGPSSGAPPPS (Aib2; αMeF(2F)6; αMeL13; K17((2-[2-(2-Amino-ethoxy)-ethoxy]-acetyl)2-(γGlu)-CO-(CH2)18-CO2H); Aib20; C-terminal NH2) [Peptide 153] : 0.501
